target: Sodium channel protein type 2 subunit alpha (Homo sapiens); assay: Inhibition of human Nav1.2 expressed in HEK293 cells by sodium influx assay; format: cell-based
Sequence (Q99250 whole entry): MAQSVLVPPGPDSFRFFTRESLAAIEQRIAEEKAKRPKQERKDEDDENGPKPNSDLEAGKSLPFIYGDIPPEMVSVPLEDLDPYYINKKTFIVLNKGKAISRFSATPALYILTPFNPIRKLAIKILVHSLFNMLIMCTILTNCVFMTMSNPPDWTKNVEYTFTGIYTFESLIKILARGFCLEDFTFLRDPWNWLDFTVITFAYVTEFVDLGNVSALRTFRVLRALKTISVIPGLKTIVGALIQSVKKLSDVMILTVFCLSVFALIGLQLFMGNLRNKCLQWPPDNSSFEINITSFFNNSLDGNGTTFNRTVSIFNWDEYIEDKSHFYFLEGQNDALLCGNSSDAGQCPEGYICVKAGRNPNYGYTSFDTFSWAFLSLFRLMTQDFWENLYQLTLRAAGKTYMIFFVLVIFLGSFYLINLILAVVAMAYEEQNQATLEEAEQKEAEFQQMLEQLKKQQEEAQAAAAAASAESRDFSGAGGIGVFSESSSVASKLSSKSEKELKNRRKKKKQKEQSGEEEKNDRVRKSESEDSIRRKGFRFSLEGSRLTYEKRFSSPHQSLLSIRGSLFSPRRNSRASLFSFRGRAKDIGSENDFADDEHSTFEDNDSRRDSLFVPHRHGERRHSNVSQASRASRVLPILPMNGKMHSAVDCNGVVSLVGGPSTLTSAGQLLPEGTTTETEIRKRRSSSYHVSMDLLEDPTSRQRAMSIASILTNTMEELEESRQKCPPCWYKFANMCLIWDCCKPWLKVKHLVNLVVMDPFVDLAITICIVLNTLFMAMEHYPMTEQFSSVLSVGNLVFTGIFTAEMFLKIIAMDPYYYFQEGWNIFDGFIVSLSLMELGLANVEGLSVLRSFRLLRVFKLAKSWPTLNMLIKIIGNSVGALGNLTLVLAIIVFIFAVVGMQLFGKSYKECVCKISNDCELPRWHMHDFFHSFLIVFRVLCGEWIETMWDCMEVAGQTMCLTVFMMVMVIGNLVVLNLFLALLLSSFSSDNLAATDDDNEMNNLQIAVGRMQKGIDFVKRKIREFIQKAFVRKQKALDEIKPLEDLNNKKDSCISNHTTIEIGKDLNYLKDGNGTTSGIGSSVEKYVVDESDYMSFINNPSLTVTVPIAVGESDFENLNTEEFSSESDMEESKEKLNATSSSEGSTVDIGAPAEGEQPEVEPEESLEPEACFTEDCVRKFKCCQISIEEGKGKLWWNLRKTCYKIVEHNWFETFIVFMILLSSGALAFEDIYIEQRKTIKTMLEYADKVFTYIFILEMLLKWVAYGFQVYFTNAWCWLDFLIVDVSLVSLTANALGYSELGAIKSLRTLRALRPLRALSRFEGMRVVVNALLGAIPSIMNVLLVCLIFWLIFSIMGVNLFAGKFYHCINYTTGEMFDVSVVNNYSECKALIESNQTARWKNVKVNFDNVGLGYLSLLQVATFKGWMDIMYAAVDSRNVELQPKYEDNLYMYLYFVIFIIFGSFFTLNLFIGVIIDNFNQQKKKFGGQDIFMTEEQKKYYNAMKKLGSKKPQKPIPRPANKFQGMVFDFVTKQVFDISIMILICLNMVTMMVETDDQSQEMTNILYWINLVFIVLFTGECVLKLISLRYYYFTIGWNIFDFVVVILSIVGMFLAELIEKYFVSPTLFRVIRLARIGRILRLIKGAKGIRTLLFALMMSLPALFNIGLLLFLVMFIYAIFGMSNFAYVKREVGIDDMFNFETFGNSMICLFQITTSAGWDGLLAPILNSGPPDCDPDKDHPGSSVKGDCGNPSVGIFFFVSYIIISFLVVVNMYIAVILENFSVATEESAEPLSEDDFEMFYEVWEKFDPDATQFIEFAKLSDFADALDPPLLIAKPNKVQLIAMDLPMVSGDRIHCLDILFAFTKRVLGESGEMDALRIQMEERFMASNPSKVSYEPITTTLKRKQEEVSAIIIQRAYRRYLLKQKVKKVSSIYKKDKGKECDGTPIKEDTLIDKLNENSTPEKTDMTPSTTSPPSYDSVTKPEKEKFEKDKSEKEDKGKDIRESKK
pIC50: −log10 of the molar value.
MEASURE: pIC50

INSERT INTO measurements (molecule, measure, reported_result) VALUES
  ('O=S(=O)(Nc1cccc(F)n1)c1cc(F)c(O[C@H]2CCN(CC(F)(F)F)C[C@@H]2c2ccc(F)c(F)c2)c(F)c1 (stereo in doubt; (-)-6)', 'pIC50', 6.57);

* * *

assay: Clearance in FVB mouse at 1 mg/kg, iv; format: ADME, organism-based; conditions: in vivo
Property: clearance; scope: individual molecules
MEASURE: clearance (mL/min/kg)

INSERT INTO measurements (molecule, reported_result) VALUES
  ('O=S(=O)(Nc1cccc(F)n1)c1cc(F)c(OC2CCN(CC(F)(F)F)CC2c2ccc(F)c(F)c2)cc1F (single isomer, unassigned; (-))', 1.8),
  ('O=S(=O)(Nc1cccc(F)n1)c1cc(F)c(O[C@H]2CCN(CC(F)(F)F)C[C@@H]2c2ccc(F)c(F)c2)c(F)c1 (stereo in doubt; (-)-6)', 3.8);

* * *

target: Sodium channel protein type 5 subunit alpha (Homo sapiens, UniProt Q14524); experiment: Displacement of [3H]BNZA from Nav1.5 (unknown origin)
Sequence (Q14524 whole entry): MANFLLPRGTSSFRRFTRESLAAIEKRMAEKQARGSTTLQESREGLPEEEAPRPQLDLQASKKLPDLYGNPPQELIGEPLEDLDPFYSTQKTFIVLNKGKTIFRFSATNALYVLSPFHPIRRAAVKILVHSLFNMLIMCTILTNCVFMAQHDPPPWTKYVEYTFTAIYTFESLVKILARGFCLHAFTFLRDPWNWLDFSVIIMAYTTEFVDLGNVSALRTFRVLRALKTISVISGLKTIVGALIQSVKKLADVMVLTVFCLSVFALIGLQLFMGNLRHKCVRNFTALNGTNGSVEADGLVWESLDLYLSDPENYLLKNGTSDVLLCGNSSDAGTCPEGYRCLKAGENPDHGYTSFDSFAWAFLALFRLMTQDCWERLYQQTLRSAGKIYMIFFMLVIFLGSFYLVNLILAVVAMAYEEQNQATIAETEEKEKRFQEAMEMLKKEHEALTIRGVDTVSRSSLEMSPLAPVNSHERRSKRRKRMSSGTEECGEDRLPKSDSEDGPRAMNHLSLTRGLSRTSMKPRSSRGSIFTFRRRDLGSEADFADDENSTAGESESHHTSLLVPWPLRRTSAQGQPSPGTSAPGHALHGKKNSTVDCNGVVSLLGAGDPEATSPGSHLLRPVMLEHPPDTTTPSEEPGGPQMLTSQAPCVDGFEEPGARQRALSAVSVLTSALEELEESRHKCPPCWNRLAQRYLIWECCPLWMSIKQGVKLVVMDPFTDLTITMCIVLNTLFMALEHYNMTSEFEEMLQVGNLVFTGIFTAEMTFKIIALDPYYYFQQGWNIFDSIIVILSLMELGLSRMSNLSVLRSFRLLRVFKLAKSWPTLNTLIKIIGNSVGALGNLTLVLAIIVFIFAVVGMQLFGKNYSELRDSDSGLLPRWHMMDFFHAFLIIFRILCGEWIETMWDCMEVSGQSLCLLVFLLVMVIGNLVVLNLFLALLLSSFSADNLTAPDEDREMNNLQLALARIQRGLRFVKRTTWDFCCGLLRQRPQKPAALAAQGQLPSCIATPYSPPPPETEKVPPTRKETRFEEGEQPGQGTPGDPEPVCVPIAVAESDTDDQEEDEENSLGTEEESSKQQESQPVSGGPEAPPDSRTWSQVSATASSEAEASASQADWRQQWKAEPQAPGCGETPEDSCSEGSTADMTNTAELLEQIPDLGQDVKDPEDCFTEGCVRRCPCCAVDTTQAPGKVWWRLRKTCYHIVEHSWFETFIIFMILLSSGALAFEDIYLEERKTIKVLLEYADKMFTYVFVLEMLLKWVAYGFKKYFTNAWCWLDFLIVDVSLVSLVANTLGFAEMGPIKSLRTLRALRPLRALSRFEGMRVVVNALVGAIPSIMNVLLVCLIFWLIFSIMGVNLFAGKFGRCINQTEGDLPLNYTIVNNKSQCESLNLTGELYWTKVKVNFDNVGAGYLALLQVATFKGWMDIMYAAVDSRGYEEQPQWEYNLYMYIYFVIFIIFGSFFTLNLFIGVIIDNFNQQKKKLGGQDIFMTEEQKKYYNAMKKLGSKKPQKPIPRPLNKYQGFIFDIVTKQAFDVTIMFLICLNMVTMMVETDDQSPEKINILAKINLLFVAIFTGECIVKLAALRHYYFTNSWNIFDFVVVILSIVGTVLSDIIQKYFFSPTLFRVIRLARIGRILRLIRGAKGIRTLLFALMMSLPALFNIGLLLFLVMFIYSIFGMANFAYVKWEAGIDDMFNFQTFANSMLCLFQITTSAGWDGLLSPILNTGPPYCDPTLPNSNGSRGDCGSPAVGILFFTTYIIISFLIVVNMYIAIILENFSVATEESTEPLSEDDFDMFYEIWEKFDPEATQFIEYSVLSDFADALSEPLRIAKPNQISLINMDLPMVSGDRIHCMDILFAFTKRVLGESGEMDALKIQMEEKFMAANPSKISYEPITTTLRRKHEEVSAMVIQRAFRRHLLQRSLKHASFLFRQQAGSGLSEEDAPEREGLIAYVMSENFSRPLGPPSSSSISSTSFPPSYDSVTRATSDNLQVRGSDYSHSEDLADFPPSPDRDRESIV
pKi: −log10 of the molar value.
MEASURE: pKi

INSERT INTO assay_data (compound, reported_result) VALUES
  ('O=S(=O)(Nc1cccc(F)n1)c1cc(F)c(OC2CCN(CC(F)(F)F)CC2c2ccc(F)c(F)c2)cc1F (single isomer, unassigned; (-))', 5.69),
  ('O=S(=O)(Nc1cccc(F)n1)c1cc(F)c(O[C@H]2CCN(CC(F)(F)F)C[C@@H]2c2ccc(F)c(F)c2)c(F)c1 (stereo in doubt; (-)-6)', 6.43);

* * *

Property: Cmax; scope: individual molecules
assay: Cmax in FVB mouse at 10 mg/kg, po; type: ADME, organism-based; design: route oral, dose 10 mg/kg; details: in vivo
MEASURE: Cmax

INSERT INTO assay_data (molecule, measure, reported_result) VALUES
  ('O=S(=O)(Nc1cccc(F)n1)c1cc(F)c(O[C@H]2CCN(CC(F)(F)F)C[C@@H]2c2ccc(F)c(F)c2)c(F)c1 (stereo in doubt; (-)-6)', 'Cmax', '3.6 µM'),
  ('O=S(=O)(Nc1cccc(F)n1)c1cc(F)c(OC2CCN(CC(F)(F)F)CC2c2ccc(F)c(F)c2)cc1F (single isomer, unassigned; (-))', 'Cmax', '5.2 µM');

* * *

Property: IC50; scope: individual compounds
biological target: Sodium channel protein type 5 subunit alpha (Homo sapiens); experiment: Inhibition of human Nav1.5 by automated voltage clamp electrophysiology
MEASURE: IC50

INSERT INTO results (compound, reported_result) VALUES
  ('O=S(=O)(Nc1cccc(F)n1)c1cc(F)c(O[C@H]2CCN(CC(F)(F)F)C[C@@H]2c2ccc(F)c(F)c2)c(F)c1 (racemic)', '0.065 µM'),
  ('O=S(=O)(Nc1cccnn1)c1cc(F)c(O[C@H]2CCN(CC(F)(F)F)C[C@@H]2c2ccccc2)cc1F (racemic)', '25.5 µM'),
  ('CS(=O)(=O)c1cccc([C@H]2CN(CC(F)(F)F)CC[C@@H]2Oc2cc(F)c(S(=O)(=O)Nc3cccc(F)n3)cc2F)c1 (racemic)', '> 30 µM'),
  ('O=S(=O)(Nc1ccccn1)c1cc(F)c(O[C@H]2CCN(CC(F)(F)F)C[C@@H]2c2ccccc2)cc1F (racemic)', '4.32 µM'),
  ('O=S(=O)(Nc1cccc(F)n1)c1cc(F)c(O[C@H]2CCN(CC(F)(F)F)C[C@@H]2c2ccc(F)c(F)c2)cc1F (racemic)', '0.26 µM'),
  ('O=S(=O)(Nc1cccc(F)n1)c1cc(F)c(O[C@H]2CCN(CC(F)(F)F)C[C@@H]2c2cccc(F)c2)cc1F (racemic)', '0.46 µM'),
  ('O=S(=O)(Nc1ccc(F)cn1)c1cc(F)c(O[C@H]2CCN(CC(F)(F)F)C[C@@H]2c2ccccc2)cc1F (racemic)', '13.2 µM');

* * *

test: Intrinsic clearance in human liver microsomes; assay type: ADME, Microsome; settings: read-out: CLH
MEASURE: CLint scaled (mL/min/kg)

INSERT INTO assay_data (compound, measure, reported_result) VALUES
  ('O=S(=O)(Nc1cccc(F)n1)c1cc(F)c(O[C@H]2CCN(CC(F)(F)F)C[C@@H]2c2ccccc2F)cc1F (racemic)', 'CLint scaled', 17),
  ('O=S(=O)(Nc1cccc(F)n1)c1cc(F)c(O[C@H]2CCN(CC(F)(F)F)C[C@@H]2c2ccccc2)cc1F (racemic)', 'CLint scaled', 16),
  ('O=S(=O)(Nc1cccc(F)n1)c1cc(F)c(O[C@H]2CCN(CC(F)(F)F)C[C@@H]2c2ccc(F)c(F)c2)cc1F (racemic)', 'CLint scaled', 7.5),
  ('O=S(=O)(Nc1cccc(F)n1)c1cc(F)c(O[C@H]2CCN(CC(F)(F)F)C[C@@H]2c2ccc(F)c(F)c2)c(F)c1 (racemic)', 'CLint scaled', 15);

* * *

Property: CLint scaled; scope: individual molecules
assay: Intrinsic clearance in mouse liver microsomes; format: ADME, Microsome; details: read-out: CLH
MEASURE: CLint scaled (mL/min/kg)

INSERT INTO assay_data (molecule, measure, result_unit, reported_result) VALUES
  ('O=S(=O)(Nc1cccc(F)n1)c1cc(F)c(O[C@H]2CCN(CC(F)(F)F)C[C@@H]2c2ccc(F)c(F)c2)cc1F (racemic)', 'CLint scaled', 'mL/min/kg', 49),
  ('O=S(=O)(Nc1cccc(F)n1)c1cc(F)c(O[C@H]2CCN(CC(F)(F)F)C[C@@H]2c2ccc(F)cc2F)cc1F (racemic)', 'CLint scaled', 'mL/min/kg', 49),
  ('O=S(=O)(Nc1cccc(F)n1)c1cc(F)c(O[C@H]2CCN(CC(F)(F)F)C[C@@H]2c2ccc(F)c(F)c2)c(F)c1F (racemic)', 'CLint scaled', 'mL/min/kg', 65),
  ('O=S(=O)(Nc1cccc(F)n1)c1cc(F)c(O[C@H]2CCN(CC(F)(F)F)C[C@@H]2c2ccc(F)cc2)cc1F (racemic)', 'CLint scaled', 'mL/min/kg', 62);

* * *

assay: Intrinsic clearance in human liver microsomes; assay type: ADME, Microsome; details: read-out: CLH
Property: CLint scaled; scope: individual compounds
MEASURE: CLint scaled (mL/min/kg)

INSERT INTO assay_data (compound, measure, result_unit, reported_result) VALUES
  ('O=S(=O)(Nc1cccc(F)n1)c1cc(F)c(O[C@H]2CCN(CC(F)(F)F)C[C@@H]2c2ccc(F)cc2)cc1F (racemic)', 'CLint scaled', 'mL/min/kg', 11),
  ('O=S(=O)(Nc1cccc(F)n1)c1cc(F)c(O[C@H]2CCN(CC(F)(F)F)C[C@@H]2c2ccc(F)c(F)c2)c(F)c1F (racemic)', 'CLint scaled', 'mL/min/kg', 14),
  ('O=S(=O)(Nc1cccc(F)n1)c1cc(F)c(O[C@H]2CCN(CC(F)(F)F)C[C@@H]2c2ccc(F)cc2F)cc1F (racemic)', 'CLint scaled', 'mL/min/kg', 13),
  ('O=S(=O)(Nc1cscn1)c1cc(F)c(O[C@H]2CCN(CC(F)(F)F)C[C@@H]2c2ccc(F)c(F)c2)cc1F (racemic)', 'CLint scaled', 'mL/min/kg', 14),
  ('O=S(=O)(Nc1cccc(F)n1)c1cc(F)c(O[C@H]2CCN(CC(F)(F)F)C[C@@H]2c2cccc(F)c2)cc1F (racemic)', 'CLint scaled', 'mL/min/kg', 13),
  ('O=S(=O)(Nc1cccc(F)n1)c1cc(F)c(OC2CCN(CC(F)(F)F)CC2c2ccc(F)c(F)c2)cc1F (single isomer, unassigned; (-))', 'CLint scaled', 'mL/min/kg', 9),
  ('O=S(=O)(Nc1cccc(F)n1)c1cnc(O[C@H]2CCN(CC(F)(F)F)C[C@@H]2c2ccc(F)c(F)c2)c(F)c1 (racemic)', 'CLint scaled', 'mL/min/kg', 8.4);

* * *

target: Sodium channel protein type 5 subunit alpha (Homo sapiens, UniProt Q14524); experiment: Inhibition of human Nav1.5 by automated voltage clamp electrophysiology
MEASURE: IC50 (nM)

INSERT INTO assay_data (compound, measure, reported_result) VALUES
  ('O=S(=O)(Nc1ncc(F)s1)c1cc(F)c(O[C@H]2CCN(CC(F)(F)F)C[C@@H]2c2ccccc2)cc1F (racemic)', 'IC50', 4650),
  ('O=S(=O)(Nc1cccc(F)n1)c1cc(F)c(OC2CCN(CC(F)(F)F)CC2c2ccc(F)c(F)c2)cc1F (single isomer, unassigned; (-))', 'IC50', 240),
  ('O=S(=O)(Nc1cccc(F)n1)c1cc(F)c(O[C@H]2CCN(CC(F)(F)F)C[C@@H]2c2ccc(F)c(F)c2)c(F)c1 (stereo in doubt; (-)-6)', 'IC50', 39);
